- Assayed Target: TRAF7-pY275mod
- Experiment: fluorescence polarization
Readout Label: pKd
Numbers only, as −log10 of the molar value.

Binder	Readout Label	Endpoint Result
T8V S10A K15L (designed binder) MKIEEHHHHHHSSGRENLYFQGGAAQPAAPVDSIQAEEWYFGKLGRKDAERQLLSFGNPRGTFLIRESETVKGAYALSIRDWDDMKGDHVKHYLIRKLDNGGYYITTRAQFETLQQLVQHYSERAAGLSSRLVVPSHKGAAA	pKd	7.22

Next up:
Form: binder = T7S S10A K15L (designed binder) MKIEEHHHHHHSSGRENLYFQGGAAQPAAPVDSIQAEEWYFGKLGRKDAERQLLSFGNPRGTFLIRESESTKGAYALSIRDWDDMKGDHVKHYLIRKLDNGGYYITTRAQFETLQQLVQHYSERAAGLSSRLVVPSHKGAAA ; pKd = 6.52
